The origin of these recorded values is patent US20220249679A1.

Tgt: T1, Human CD138 His (human, UniProt P18827 23-254)
T1 construct: also called hCD138
T1 sequence: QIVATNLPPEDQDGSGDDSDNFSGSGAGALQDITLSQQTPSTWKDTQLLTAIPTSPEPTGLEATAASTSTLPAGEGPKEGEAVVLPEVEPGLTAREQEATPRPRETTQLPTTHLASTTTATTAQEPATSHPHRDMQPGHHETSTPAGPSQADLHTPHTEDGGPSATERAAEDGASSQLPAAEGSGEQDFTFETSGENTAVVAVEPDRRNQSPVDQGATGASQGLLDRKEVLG
Assay Remarks: SPR (BioRad Proteon), CD138 His immobilized, bivalent analyte fit
Quantity Name: koff (s⁻¹)
# output: bare number, implied unit s⁻¹

Name the recorded koff of the binder listed here: F13P30A7 (antibody, V domains shown, Murine IgG purified from hybridoma supernatant) VH: EVQLVESGGGLVQPKGSLKLSCAASGFTFNTYAMNWVRQAPGKGLEWIARIRSKSNNYATYYADSVKDRFTISRDDSQSLLYLQMNNLKTEDTAIFYCVTDYGYVYFDAWGAGTTVTVSS VL: NIIMTQSPKSMAMSVGERVTLSCKASENVGNYVSWYQQKPEQSPKLLIYGASYRYTGVPDRFTGSGSGTDFTLTISSVQAEDLADYHCGQSSRYPLTFGAGTKLELKR
0.00127
